Molecular target: human mGlu5a receptor (Homo sapiens, UniProt P41594)
Construct: expressed in transfected cells
Sequence (P41594 21-1180 isoform P41594-2 limits assumed): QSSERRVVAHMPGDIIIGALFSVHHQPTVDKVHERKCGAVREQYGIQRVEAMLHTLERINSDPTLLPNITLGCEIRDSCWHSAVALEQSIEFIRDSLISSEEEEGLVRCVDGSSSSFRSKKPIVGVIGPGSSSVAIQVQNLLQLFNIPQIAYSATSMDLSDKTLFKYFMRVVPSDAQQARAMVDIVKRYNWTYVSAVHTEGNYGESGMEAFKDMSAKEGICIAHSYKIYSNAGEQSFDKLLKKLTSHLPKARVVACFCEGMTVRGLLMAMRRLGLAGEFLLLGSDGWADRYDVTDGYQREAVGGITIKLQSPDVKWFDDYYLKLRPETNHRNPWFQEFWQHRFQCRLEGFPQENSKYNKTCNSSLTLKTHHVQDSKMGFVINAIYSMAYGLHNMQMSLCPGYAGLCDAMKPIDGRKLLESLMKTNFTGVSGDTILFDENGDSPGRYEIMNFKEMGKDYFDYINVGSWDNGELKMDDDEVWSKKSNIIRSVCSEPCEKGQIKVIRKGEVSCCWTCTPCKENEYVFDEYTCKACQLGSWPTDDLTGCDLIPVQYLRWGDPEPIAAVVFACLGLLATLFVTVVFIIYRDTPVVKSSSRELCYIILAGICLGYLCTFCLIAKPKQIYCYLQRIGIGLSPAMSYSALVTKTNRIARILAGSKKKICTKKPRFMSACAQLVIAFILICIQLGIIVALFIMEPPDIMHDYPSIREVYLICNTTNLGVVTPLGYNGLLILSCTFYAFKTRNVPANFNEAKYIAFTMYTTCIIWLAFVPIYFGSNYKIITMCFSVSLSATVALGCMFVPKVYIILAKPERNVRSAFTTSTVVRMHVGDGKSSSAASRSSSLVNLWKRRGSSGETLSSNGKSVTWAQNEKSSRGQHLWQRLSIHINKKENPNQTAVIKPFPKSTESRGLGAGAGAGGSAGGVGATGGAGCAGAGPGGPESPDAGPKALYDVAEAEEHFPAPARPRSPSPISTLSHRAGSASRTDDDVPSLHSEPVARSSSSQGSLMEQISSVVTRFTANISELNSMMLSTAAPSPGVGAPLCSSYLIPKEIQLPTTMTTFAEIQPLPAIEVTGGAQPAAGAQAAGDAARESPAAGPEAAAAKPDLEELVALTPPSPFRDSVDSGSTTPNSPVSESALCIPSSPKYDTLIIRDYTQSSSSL
Assay: Intracellular Ca2+ mobilization assay (mGlu5 PAM)
Type: cell-based
Conditions: HEK-293 cells stably transfected with human mGlu5a; L-glutamate added at EC20 after pre-incubation with test compound; read-out: EC50 (nM) mGlu5PAM
Readout Label: EC50 (nM)

# annotated cases, reported EC50 shown
1) CC1(C)CC(=O)N(c2ccc(C#Cc3ccccc3)nc2)N1 [Example 8] : 62
2) CC1(C)CC(=O)N(c2cnc(C#Cc3ccccc3)nc2)C1 [Example 9] : 36
3) CN1C(=O)N(c2ccc(C#Cc3ccccc3)nc2)CC1(C)C [Example 3] : 15

[A] CC1(C)CC(=O)N(c2ccc(C#Cc3cccc(F)c3)nc2)C1 [Example 7]
[B] CC1(C)CCN(c2ccc(C#Cc3ccccc3)nc2)C(=O)O1 [Example 2]
Field: lower EC50 | Options: A / B Reply briefly: the label of your chosen item.
A

###

Target: human mGlu5a receptor (Homo sapiens)
Construct: expressed in transfected cells
Assay: Intracellular Ca2+ mobilization assay (mGlu5 PAM)
Assay type: cell-based
Conditions: maximal response in % of the maximal stimulatory effect obtained with saturating concentrations of L-glutamate; read-out: Eff. (%)
Readout Label: Emax (%)

Reference set, count: 5
1) CN1N(c2ccc(C#Cc3ccccc3)nc2)C(=O)CC1(C)C : 66
2) CN1C(=O)N(c2ccc(C#Cc3cccc(F)c3)nc2)CC1(C)C : 42
3) CC1(C)CC(=O)N(c2ccc(C#Cc3ccccc3)nc2)C1 : 75
4) CN1C(=O)N(c2ccc(C#Cc3cccnc3)nc2)CC1(C)C : 36
5) CC1(C)CC(=O)N(c2cnc(C#Cc3ccccc3)nc2)C1 : 39

[P] CN1N(c2ccc(C#Cc3cc(F)ccc3F)nc2)C(=O)CC1(C)C
[Q] CC1(C)CC(=O)N(c2ccc(C#Cc3cccc(F)c3)nc2)N1
[R] CC1(C)CCN(c2ccc(C#Cc3ccccc3)nc2)C(=O)O1
Sort the molecules on Emax; start with the lowest figure. To answer, write out the labels according to the requested order.
Q, P, R

###

Target: human mGlu5a receptor (Homo sapiens)
Construct: expressed in transfected cells
Test: Intracellular Ca2+ mobilization assay (mGlu5 PAM)
Type: cell-based
Conditions: HEK-293 cells stably transfected with human mGlu5a; L-glutamate added at EC20 after pre-incubation with test compound; read-out: EC50 (nM) mGlu5PAM
Readout Label: EC50 (nM)

The following compounds have reported results that may help.
1) CN1C(=O)N(c2ccc(C#Cc3ccc(F)cc3)nc2)CC1(C)C [Example 4] : 50
2) CC1(C)CC(=O)N(c2ccc(C#Cc3cccc(F)c3)nc2)N1 [Example 15] : 68
3) CC1(C)CC(=O)N(c2ccc(C#Cc3ccccc3)nc2)C1 [Example 1] : 49
4) CN1N(c2ccc(C#Cc3cc(F)ccc3F)nc2)C(=O)CC1(C)C [Example 14] : 53

[I] CN1N(c2ccc(C#Cc3cccc(F)c3)nc2)C(=O)CC1(C)C [Example 13]
[II] CCN1C(=O)N(c2cnc(C#Cc3ccccc3)nc2)CC1(C)C [Example 11]
[III] CN1C(=O)N(c2ccc(C#Cc3cccnc3)nc2)CC1(C)C [Example 6]
[IV] CN1C(=O)N(c2ccc(C#Cc3cccc(F)c3)nc2)CC1(C)C [Example 5]
Sort entries by EC50 from minimum to maximum value. State the ranking by listing the labels in the requested order.
IV, I, II, III
(IV: 19 nM, I: 38 nM, II: 79 nM, III: 241 nM)

Sourced from patent US8969338B2
